Assignment: determine reported growth inhibition for the given compounds.
- System: DIPGX37 (H3.3 K27M diffuse intrinsic pontine glioma line)
- assay method text: growth inhibition (% activity, log2 RLU normalised to DMSO / staurosporine); higher = more growth inhibition
- measurement conditions: 33 µM
Lab book: enter the figure in %, no units written.

Challenge: Query (compound): CO[C@@H]1[C@@H](OC(N)=O)[C@@H](O)[C@H](Oc2ccc3c(O)c(NC(=O)c4ccc(O)c(CC=C(C)C)c4)c(=O)oc3c2C)OC1(C)C ; field requested: growth inhibition
Response given: 3.02

Challenge: Query (compound): CCCC1O[C@@H]2C[C@H]3[C@@H]4CCC5=CC(=O)C=C[C@]5(C)[C@H]4[C@@H](O)C[C@]3(C)[C@]2(C(=O)CO)O1 (some centres not stated) ; field requested: growth inhibition
Response given: -0.133

Challenge: Query (compound): CN(Cc1cnc2nc(N)nc(N)c2n1)c1ccc(C(=O)N[C@@H](CCC(=O)O)C(=O)O)cc1 ; field requested: growth inhibition
Response given: 1.21

Challenge: Query (compound): CN(C)CCCN1c2ccccc2Sc2ccc(C(F)(F)F)cc21 ; field requested: growth inhibition
Response given: 1.48

Challenge: Query (compound): CC1Cc2ccccc2N1NC(=O)c1ccc(Cl)c(S(N)(=O)=O)c1 (configuration not stated) ; field requested: growth inhibition
Response given: 0.265

Challenge: Query (compound): Cc1ccc(C(=O)C(C)CN2CCCCC2)cc1 (configuration not stated) ; field requested: growth inhibition
Response given: 0.69

Challenge: Query (compound): CN(Cc1cc(Br)cc(Br)c1N)C1CCCCC1 ; field requested: growth inhibition
Response given: 1.22

Challenge: Query (compound): C[C@]12CCC(=O)C=C1CC[C@@H]1[C@@H]2[C@@H](O)C[C@@]2(C)[C@H]1CC[C@]2(O)C(=O)CO ; field requested: growth inhibition
Response given: 3.35

Challenge: Query (compound): NC(=O)c1ncn([C@@H]2O[C@H](CO)[C@@H](O)[C@H]2O)n1 ; field requested: growth inhibition
Response given: 0.551

Challenge: Query (compound): CCOc1nc2cccc(C(=O)OCc3oc(=O)oc3C)c2n1Cc1ccc(-c2ccccc2-c2noc(=O)[nH]2)cc1 ; field requested: growth inhibition
Response given: -1.86

Challenge: Query (compound): CC(C)(C)NCC(O)c1ccc(O)c(CO)c1 (configuration not stated) ; field requested: growth inhibition
Response given: -1.32

Challenge: Query (compound): [Na+].[Na+].[Na+].[O]=[V]([O-])([O-])[O-] ; field requested: growth inhibition
Response given: 0.923

Challenge: Query (compound): O=C(N[C@H](CO)[C@H](O)c1ccc([N+](=O)[O-])cc1)C(Cl)Cl ; field requested: growth inhibition
Response given: 2.12

Challenge: Query (compound): CCOC(=O)CC(=O)N1CCSC1COc1ccccc1OC (configuration not stated) ; field requested: growth inhibition
Response given: 3.41

Challenge: Query (compound): OCC(O)CN1CCN(c2ccccc2)CC1 (configuration not stated) ; field requested: growth inhibition
Response given: -0.131

Challenge: Query (compound): CN(C)[C@@H](CCOc1cccc2ccccc12)c1ccccc1 ; field requested: growth inhibition
Response given: 0.861

Challenge: Query (compound): C#Cc1cccc(Nc2ncnc3cc(OCCOC)c(OCCO)cc23)c1 ; field requested: growth inhibition
Response given: 3.87

Challenge: Query (compound): COc1ccccc1OCC(O)COC(N)=O (configuration not stated) ; field requested: growth inhibition
Response given: 1.65

Challenge: Query (compound): C[C@@H]1CCN(C(=O)CC#N)C[C@@H]1N(C)c1ncnc2[nH]ccc12 ; field requested: growth inhibition
Response given: -1.72

Challenge: Query (compound): COc1cc(NS(=O)(=O)c2ccc(N)cc2)nc(OC)n1 ; field requested: growth inhibition
Response given: 1.08

Challenge: Query (compound): CCOC(=O)C1=C[C@]2(CC)CCCN3CCc4c(n1c1ccccc41)[C@@H]32 ; field requested: growth inhibition
Response given: 0.343

Challenge: Query (compound): COc1c(C)c2c(c(O)c1C/C=C(\C)CCC(=O)OCCN1CCOCC1)C(=O)OC2 ; field requested: growth inhibition
Response given: 14.5

* * *

- Test system: HNSC
- assay method text: growth inhibition (% activity, log2 RLU normalised to DMSO / staurosporine); higher = more growth inhibition
- measurement conditions: 33 µM
recorded endpoint: growth inhibition (%)
Lab book: enter the figure in %, no units written.

Challenge: Query (compound): Cc1ccc(-c2cc(C(F)(F)F)nn2-c2ccc(S(N)(=O)=O)cc2)cc1 ; field requested: growth inhibition
Response given: 0.519

Challenge: Query (compound): NC(=O)c1ncn([C@@H]2O[C@H](CO)[C@@H](O)[C@H]2O)c1O ; field requested: growth inhibition
Response given: 1.34

Challenge: Query (compound): CCN(CC)C(=O)/C(C#N)=C/c1cc(O)c(O)c([N+](=O)[O-])c1 ; field requested: growth inhibition
Response given: -2.42

Challenge: Query (compound): NNc1nncc2ccccc12 ; field requested: growth inhibition
Response given: -1.94

Challenge: Query (compound): COc1ccc2cc([C@H](C)C(=O)O)ccc2c1 ; field requested: growth inhibition
Response given: 0.9

Challenge: Query (compound): C=C[C@H]1CN2CC[C@H]1C[C@H]2[C@H](O)c1ccnc2ccc(OC)cc12 ; field requested: growth inhibition
Response given: 2.99

Challenge: Query (compound): OCC(CO)N[C@H]1C[C@](O)(CO)[C@@H](O)[C@H](O)[C@H]1O ; field requested: growth inhibition
Response given: -1.53

Challenge: Query (compound): CC(C)(C)C(=O)OCOP(=O)(COCCn1cnc2c(N)ncnc21)OCOC(=O)C(C)(C)C ; field requested: growth inhibition
Response given: 47.8

Challenge: Query (compound): CCN(CC)CCOC(=O)C1(C2CCCCC2)CCCCC1 ; field requested: growth inhibition
Response given: -1.91

Challenge: Query (compound): O=C(Nc1ccccc1)c1ccccc1O ; field requested: growth inhibition
Response given: 1.7

Challenge: Query (compound): CCCCCCCCCCCCCCCC[N+](C)(C)C ; field requested: growth inhibition
Response given: 59.5

Challenge: Query (compound): CC(=O)N[C@H]1[C@H]([C@H](O)[C@H](O)CO)OC(C(=O)O)=C[C@@H]1NC(=N)N ; field requested: growth inhibition
Response given: 7.75

Challenge: Query (compound): CC[C@H](C)C(=O)O[C@H]1CCC=C2C=C[C@H](C)[C@H](CC[C@@H]3C[C@@H](O)CC(=O)O3)[C@H]21 ; field requested: growth inhibition
Response given: 47.3

Challenge: Query (compound): COCCOC(=O)C1=C(C)NC(C)=C(C(=O)OC/C=C/c2ccccc2)C1c1cccc([N+](=O)[O-])c1 (stereo unspecified) ; field requested: growth inhibition
Response given: 5.17

Challenge: Query (compound): O=C([O-])C(O)[C@H](O)[C@@H](O)[C@H](O)[C@H](O)CO.O=C([O-])C(O)[C@H](O)[C@@H](O)[C@H](O)[C@H](O)CO.[Ca+2] (stereo partly specified) ; field requested: growth inhibition
Response given: 2.4

Challenge: Query (compound): CCN(CC)CCOCCOC(=O)C(CC)(CC)c1ccccc1 ; field requested: growth inhibition
Response given: 6.61

Challenge: Query (compound): CC(C)C(=O)Oc1ccc(CO)cc1[C@H](CCN(C(C)C)C(C)C)c1ccccc1 ; field requested: growth inhibition
Response given: 0.95

Challenge: Query (compound): N=S(=O)(O)Cc1noc2ccccc12 ; field requested: growth inhibition
Response given: -4.88

Challenge: Query (compound): O=C1Cc2cc(CCN3CCN(c4nsc5ccccc45)CC3)c(Cl)cc2N1 ; field requested: growth inhibition
Response given: 1.23

Challenge: Query (compound): C[C@@H](NCCCc1cccc(C(F)(F)F)c1)c1cccc2ccccc12 ; field requested: growth inhibition
Response given: 49.7

Challenge: Query (compound): CN(C)C(=O)C(CCN1CCC(O)(c2ccc(Cl)cc2)CC1)(c1ccccc1)c1ccccc1 ; field requested: growth inhibition
Response given: 81.6

* * *

Assignment: determine reported growth inhibition for the given compounds.
- Test system: DIPGX29 (H3.3 K27M diffuse intrinsic pontine glioma line)
- assay method text: growth inhibition (% activity, log2 RLU normalised to DMSO / staurosporine); higher = more growth inhibition
- measurement conditions: 33 µM
Lab book: enter the figure in %, no units written.

Challenge: Query (compound): CN1CC2c3ccccc3Oc3ccc(Cl)cc3C2C1 (stereo not given) ; field requested: growth inhibition
Response given: 1.89

Challenge: Query (compound): COc1ncnc(NS(=O)(=O)c2ccc(N)cc2)c1OC ; field requested: growth inhibition
Response given: 0.769

Challenge: Query (compound): Nc1nc(CC(=O)Nc2ccc(CCNC[C@H](O)c3ccccc3)cc2)cs1 ; field requested: growth inhibition
Response given: 0.527

Challenge: Query (compound): O=c1[nH]c(=O)n([C@H]2C[C@H](O)[C@@H](CO)O2)cc1I ; field requested: growth inhibition
Response given: 0.0722

Challenge: Query (compound): CCC(C)n1ncn(-c2ccc(N3CCN(c4ccc(OCC5COC(Cn6cncn6)(c6ccc(Cl)cc6Cl)O5)cc4)CC3)cc2)c1=O (stereo not given) ; field requested: growth inhibition
Response given: -0.782

Challenge: Query (compound): CC(C)[C@H](N)C(=O)OCCOCn1cnc2c(=O)nc(N)[nH]c21 ; field requested: growth inhibition
Response given: 0.298

Challenge: Query (compound): O=C([O-])C(O)[C@H](O)[C@@H](O)[C@H](O)[C@H](O)CO.O=C([O-])C(O)[C@H](O)[C@@H](O)[C@H](O)[C@H](O)CO.[Ca+2] (stereo not given in full) ; field requested: growth inhibition
Response given: 2.16

Challenge: Query (compound): Cc1ccc(S(=O)(=O)NC(=O)NN2CC3CCCC3C2)cc1 (stereo not given) ; field requested: growth inhibition
Response given: 1.02

Challenge: Query (compound): COc1c(C)c2c(c(O)c1C/C=C(\C)CCC(=O)OCCN1CCOCC1)C(=O)OC2 ; field requested: growth inhibition
Response given: 17.5

Challenge: Query (compound): CNCCc1ccccn1 ; field requested: growth inhibition
Response given: 0.924

Challenge: Query (compound): O=C(C[S+]([O-])Cc1ccco1)NC/C=C\COc1cc(CN2CCCCC2)ccn1 (stereo not given) ; field requested: growth inhibition
Response given: -1.37

Challenge: Query (compound): COC(=O)C1=CO[C@@H](O)[C@@H]2C(CO)=CC[C@H]12 ; field requested: growth inhibition
Response given: -0.243

Challenge: Query (compound): C#CCN[C@@H]1CCc2ccccc21 ; field requested: growth inhibition
Response given: 1.3

Challenge: Query (compound): C[C@@H](O[C@H]1OCCN(Cc2n[nH]c(=O)[nH]2)[C@H]1c1ccc(F)cc1)c1cc(C(F)(F)F)cc(C(F)(F)F)c1 ; field requested: growth inhibition
Response given: 8.42

Challenge: Query (compound): N#C[C@@H]1C[C@@H]2C[C@@H]2N1C(=O)[C@@H](N)C12CC3CC(CC(O)(C3)C1)C2 ; field requested: growth inhibition
Response given: 2.2

Challenge: Query (compound): CC1=C(C(=O)O)N2C(=O)[C@@H](NC(=O)[C@H](N)c3ccccc3)[C@H]2SC1 ; field requested: growth inhibition
Response given: -0.253

Challenge: Query (compound): O=C(O)c1cc(/N=N/c2ccc(O)c(C(=O)O)c2)ccc1O ; field requested: growth inhibition
Response given: -0.786

Challenge: Query (compound): CC(/C=C1\SC(=S)N(CC(=O)O)C1=O)=C\c1ccccc1 ; field requested: growth inhibition
Response given: -1.36

Challenge: Query (compound): Cc1ccc(O)c([C@H](CCN(C(C)C)C(C)C)c2ccccc2)c1 ; field requested: growth inhibition
Response given: -0.51

Challenge: Query (compound): COc1cc(C(=O)NS(=O)(=O)c2ccccc2C)ccc1Cc1cn(C)c2ccc(NC(=O)OC3CCCC3)cc12 ; field requested: growth inhibition
Response given: -0.736
